For each record, write down the corresponding Tumor-to-liver.
Test system: PC-3 PIP/flu tumor-bearing mice
Assay method text: Biodistribution studies in PC-3 PIP/flu tumor-bearing mice
Study conditions: 192 h p.i.; PC-3 PIP tumor
// keep it numeric: no unit symbol after the value

Lab note: O=C(O)CCC(NC(=O)NC(CCCCNC(=O)C(Cc1ccc2ccccc2c1)NC(=O)C1CCC(CNC(=O)C(CCCCNC(=O)CCCc2ccc(I)cc2)NC(=O)CN2CCN(CC(=O)O)CCN(CC(=O)O)CCN(CC(=O)O)CC2)CC1)C(=O)O)C(=O)O (stereo not shown) [^177Lu-PSMA-ALB-03, metal not drawn] gave Tumor-to-liver of 47.1

Lab note: O=C(O)CCC(NC(=O)NC(CCCCNC(=O)C(Cc1ccc2ccccc2c1)NC(=O)C1CCC(CNC(=O)C(CCCCNC(=O)CN2CCN(CC(=O)O)CCN(CC(=O)O)CCN(CC(=O)O)CC2)NC(=O)CC(NC(=O)CC(NC(=O)CCCc2ccc(I)cc2)C(=O)O)C(=O)O)CC1)C(=O)O)C(=O)O (stereo not shown) [^177Lu-PSMA-ALB-05, metal not drawn] gave Tumor-to-liver of 33.4

Lab note: O=C(O)CCC(NC(=O)NC(CCCCNC(=O)C(Cc1ccc2ccccc2c1)NC(=O)C1CCC(n2cc(CC(NC(=O)CN3CCN(CC(=O)O)CCN(CC(=O)O)CCN(CC(=O)O)CC3)C(=O)NC(CCCCNC(=O)CCCc3ccc(I)cc3)C(=O)O)nn2)CC1)C(=O)O)C(=O)O (stereo not shown) [^177Lu-PSMA-ALB-01, metal not drawn] gave Tumor-to-liver of 50.2

Lab note: O=C(O)CCC(NC(=O)NC(CCCCNC(=O)C(Cc1ccc2ccccc2c1)NC(=O)C1CCC(CNC(=O)C(CCCCNC(=O)CN2CCN(CC(=O)O)CCN(CC(=O)O)CCN(CC(=O)O)CC2)NC(=O)CCCCCCC(=O)NC(CCCCNC(=O)CCCc2ccc(I)cc2)C(=O)O)CC1)C(=O)O)C(=O)O (stereo not shown) [^177Lu-PSMA-ALB-04, metal not drawn] gave Tumor-to-liver of 23.9

This collection of values is drawn from patent US11629201B2.
